# Tested on: Klebsiella pneumoniae
# procedure details: Antibacterial activity against Klebsiella pneumoniae ATCC 13883
# Assay type: functional
readout: MIC (mg/L)

CCCCCCCC[n+]1nn(CCCCCCn2n[n+](CCCCCCCC)c3c2C(=O)c2ccccc2C3=O)c2c1C(=O)c1ccccc1C2=O.O=S(=O)([O-])C(F)(F)F.O=S(=O)([O-])C(F)(F)F; 16
NC[C@H]1O[C@H](O[C@H]2[C@H](O)[C@@H](O[C@H]3O[C@H](CO)[C@@H](O)[C@H](N)[C@H]3O)[C@H](N)C[C@@H]2N)[C@H](O)[C@@H](O)[C@@H]1O; 1
NCC[C@H](O)C(=O)N[C@@H]1C[C@H](N)[C@@H](O[C@H]2O[C@H](CN)[C@@H](O)[C@H](O)[C@H]2O)[C@H](O)[C@H]1O[C@H]1O[C@H](CO)[C@@H](O)[C@H](N)[C@H]1O; 1
CCCC[n+]1nn(CCCCCCn2n[n+](CCCC)c3c2C(=O)c2ccccc2C3=O)c2c1C(=O)c1ccccc1C2=O.O=S(=O)([O-])C(F)(F)F.O=S(=O)([O-])C(F)(F)F; 250
CC[n+]1nn(CCCCCCn2n[n+](CC)c3c2C(=O)c2ccccc2C3=O)c2c1C(=O)c1ccccc1C2=O.O=S(=O)([O-])C(F)(F)F.O=S(=O)([O-])C(F)(F)F; 250
CCCCCC[n+]1nn(CCCCCCn2n[n+](CCCCCC)c3c2C(=O)c2ccccc2C3=O)c2c1C(=O)c1ccccc1C2=O.O=S(=O)([O-])C(F)(F)F.O=S(=O)([O-])C(F)(F)F; 250
C[n+]1nn(CCCCCCn2n[n+](C)c3c2C(=O)c2ccccc2C3=O)c2c1C(=O)c1ccccc1C2=O.O=S(=O)([O-])C(F)(F)F.O=S(=O)([O-])C(F)(F)F; 250
CCCCCCCCCC[n+]1nn(CCCCCCn2n[n+](CCCCCCCCCC)c3c2C(=O)c2ccccc2C3=O)c2c1C(=O)c1ccccc1C2=O.O=S(=O)([O-])C(F)(F)F.O=S(=O)([O-])C(F)(F)F; 32
